Please respond with reported percent blockade of GAL3-ITGa3 interaction for every item in the list.
molecular target: T1, Human GAL3 protein (TrueBinding, QCB200349 / QCB200352; R&D Systems, 8259-GA) (human, UniProt P17931 2-250); assay: blocking ELISA (GAL3 coated; antibody + biotinylated ITGa3); note: test concentration or dose not given here
T1 construct: also called human galectin-3
T1 sequence (P17931 2-250 limits assumed): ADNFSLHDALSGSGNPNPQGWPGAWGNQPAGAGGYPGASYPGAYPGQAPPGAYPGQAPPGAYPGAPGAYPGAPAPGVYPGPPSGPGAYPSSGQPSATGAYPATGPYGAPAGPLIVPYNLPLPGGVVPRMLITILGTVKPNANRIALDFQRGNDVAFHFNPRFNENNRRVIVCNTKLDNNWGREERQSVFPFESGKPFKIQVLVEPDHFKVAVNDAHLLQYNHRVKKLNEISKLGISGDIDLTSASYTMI

Prompt: Endpoint output: percent blockade of GAL3-ITGa3 interaction of 12G5.D7 (antibody, V domains shown) VH: QVQLKQSGAELVRPGASVKLSCKASGYTFTDYYINWVKQRPGQGLEWIARIYPGTGNTDYNEKFKGRATLTAEKSSSTAYMQLSSLTSEDSAVYFCARFAYYYGSGGYFDYWGHGTTLTVSS VL: DILMTQSPSSMSVSLGDTVSITCHASQGINSNMGWLQQKPGKSFKGLIYHATNLEDGVPSRFSGSGSGADYSLTISSLESEDFADYYCVQYAQFPPTFGSGTKLEIK . Value?
Response: < 35%

Prompt: Subsequent entry: F846TC.16B5 (antibody, V domains shown, also called 846T.16B5) VH: QIQLVQSGPELKKPGETVKISCKASGYTFTNYGMNWVKQAPGKGLKWMGWINTYTGEPAYADDFKGRFAFSLETSASTAYLQINNLKNEDMATYFCARWGGYDGDYYAMDYWGQGTSVTVSS VL: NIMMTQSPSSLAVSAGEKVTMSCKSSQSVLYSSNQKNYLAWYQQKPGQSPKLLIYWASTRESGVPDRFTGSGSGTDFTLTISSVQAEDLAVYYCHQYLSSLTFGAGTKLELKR
Response: > 90%

Prompt: Subsequent entry: F846TC.14A2 (antibody, V domains shown, anti-Gal3 antibody; also called 846T.14A2) VH: QIQLVQSGPELKKPGETVKISCKASGYTFTNYGMNWVKQAPGKGLKWMGWINTYTGEPTYAGDLKGRFAFSLETSASTAYLQINNLKNEDTATYFCVRYTMDYWGQGTSVTVSS VL: QAVVTQESALTTSPGETVTLTCRSSTGAVTTSNYANWVQEKPDHLFTGLIGGINNRVPGVPARFSGSLIGDKAALTITGAQTEDEAIYFCALWYSNHWVFGGGTKLTVL
Response: > 90%

Prompt: Subsequent entry: 20H5.A3 (antibody, V domains shown) VH: QIQLVQSGPELKKPGESVKISCKASGYAFTTYGMSWVQQAPGKGLKWMGWVNTYSGVPTCADDFKGRFAFSLETSASTAYLQINNLRNEDTATYFCARGPYAMDYWGQGTSVTVSS VL: DIQMTQTTSSLSASLGDRVTINCSASQDISNYLNWYQQKPDGTVKLLIYYTSSLLSGVPSRFSGSGSGTDYSLTISNLEPEDIATYFCQQYSKLPYTFGSGTHLEIK
Response: > 90%

Prompt: Subsequent entry: F847C.26F5 (antibody, V domains shown, also called 847.26F5) VH: QIQLVQSGPEVKKPGETVKISCKASGYIFTNYGMNWVKQAPGKGLKWMGWINTYTGEPTYTDDFKGRFAFSLETSASTAYLQINNLKNEDTATYFCAKFGNYVGAMDYWGQGTSVTVSS VL: EIKMNQSPSSLSASLGDTITITCHASQNINVWLSWYQQKPGNIPKLLIYKASNLHTGVPSRFSGSGSGTGFTLTISSLQPEDIATYYCQQGQSYPYTFGGGTKLELK
Response: > 90%

Prompt: Subsequent entry: IMT001 (TB001) (antibody, V domains shown, anti-Gal3 antibody; also called IMT001-4) VH: QVQLVQSGSELKKPGASVKVSCKASGYTFTNYGMNWVRQAPGQGLKWMGWINTNTGEPTYVEEFTGRFVFSLETSVSTAYLQISSLKAEDTAVYFCAPYDNFFAYWGQGTTVTVSS VL: DIVLTQSPLSLPVTPGEPASISCRSSKSLLYKDGKTYLNWFLQKPGQSPQLLIYLMSTHASGVPDRFSGSGSGTDFTLKISRVEAEDVGVYYCQQLVDYPLTFGGGTKLEIK
Response: > 90%

Prompt: Subsequent entry: F847C.11B1 (antibody, V domains shown, anti-Gal3 antibody; also called 847.11B1) VH: EVQLQQSGPELVKPGASVKISCKASGNTFTDHNMHWVKQSHGKSLEWIGYIYPYNGGTGYNQKFKSKATLTVDNSSSTVYMELRSLTSEDSAVYYCARGEYDYLAWFAYWGQGTLVTVSA VL: EIVLTQSPASLSVTTGEKVTIRCITSIDIDDDMNWYQQKPGEPPKLLISEGNTLRPGVPSRFSSSGYGTDFVFTIENTLSEDVADYYCLQSDNKPLTFGAGTKLELKR
Response: < 35%

Prompt: Subsequent entry: 19B5.2E6 (antibody, V domains shown) VH: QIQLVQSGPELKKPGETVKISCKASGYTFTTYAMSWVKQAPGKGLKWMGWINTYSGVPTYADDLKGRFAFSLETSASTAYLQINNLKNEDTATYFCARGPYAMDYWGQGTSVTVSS VL: DIQMTQTTSSLSASLGDRVTISCSASQGINNYLNWYQQKPDGTVKLLIYYASSLHSGVPSRFSGSGSGTDYSLTISNLEPEDIATYYCQQYSQVPYTFGSGTKLEIK
Response: > 90%

Value source: patent US20230094463A1
